# pIC50 per entry
target: Menin/MLL (menin, FITC-MBM1 peptide) (Homo sapiens, UniProt O00255, T541A); construct: 6xHis (C); assay: Menin/MLL fluorescence polarization (FP) assay; assay type: binding; settings: averaged values over all measurements; read-out: Menin FP assay (IC50)
Sequence (O00255 with tags, fused parts or gaps T541A): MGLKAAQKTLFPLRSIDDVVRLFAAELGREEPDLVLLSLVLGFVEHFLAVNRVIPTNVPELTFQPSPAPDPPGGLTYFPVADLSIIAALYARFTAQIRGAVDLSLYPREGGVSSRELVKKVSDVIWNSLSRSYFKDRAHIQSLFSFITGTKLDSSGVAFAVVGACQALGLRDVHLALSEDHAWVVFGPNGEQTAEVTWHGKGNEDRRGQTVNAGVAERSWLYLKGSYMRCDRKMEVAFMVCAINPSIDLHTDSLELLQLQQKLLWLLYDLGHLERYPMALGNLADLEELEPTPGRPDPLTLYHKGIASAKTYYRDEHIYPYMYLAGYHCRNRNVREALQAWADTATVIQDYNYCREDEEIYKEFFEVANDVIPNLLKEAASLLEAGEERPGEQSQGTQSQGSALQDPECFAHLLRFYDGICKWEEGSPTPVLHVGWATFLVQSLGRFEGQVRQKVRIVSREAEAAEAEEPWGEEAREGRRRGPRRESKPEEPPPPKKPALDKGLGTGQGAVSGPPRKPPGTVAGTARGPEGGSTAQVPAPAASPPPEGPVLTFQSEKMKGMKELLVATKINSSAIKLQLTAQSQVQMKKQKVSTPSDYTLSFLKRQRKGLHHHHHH
pIC50: −log10 of the molar value.
recorded endpoint: pIC50

compound	reported measurement
CC(C)CN1CC[C@@H]2CN(c3ncnc4sc(CC(F)(F)F)cc34)C[C@@H]21 (single isomer, unassigned) [Compound 28A]	5.93
Cn1cc(CN2CC3CN(c4ncnc5sc(CC(F)(F)F)cc45)CC3C2)cn1 (stereo not drawn)	6.28
Cn1cc(CN2CCC3CN(c4ncnc5sc(CC(F)(F)F)cc45)CC3C2)cn1 (stereo not drawn)	7.06
Cn1cc(CN2CC[C@@H]3CN(c4ncnc5sc(CC(F)(F)F)cc45)C[C@@H]32)cn1 [Compound 27A]	5.34
Fc1ccccc1CN1CC[C@H]2CN(c3ncnc4sc(CC(F)(F)F)cc34)CC[C@H]21 (single isomer, unassigned)	6.68
Cc1nc(CN2CC[C@H]3CN(c4ncnc5sc(CC(F)(F)F)cc45)CC[C@H]32)cs1 (single isomer, unassigned)	6.37
Cn1ccc(CN2CC[C@@H]3CN(c4ncnc5sc(CC(F)(F)F)cc45)CC[C@@H]32)n1 (single isomer, unassigned)	5.95
Fc1ccccc1CN1CC[C@@H]2CN(c3ncnc4sc(CC(F)(F)F)cc34)CC[C@@H]21 (single isomer, unassigned)	6.20
FC(F)(F)Cc1cc2c(N3CC[C@H]4[C@H](CCN4Cc4ccc(Cl)nc4)C3)ncnc2s1 (single isomer, unassigned)	6.23
FC(F)(F)Cc1cc2c(N3CCC4C(CCN4Cc4cc[nH]n4)C3)ncnc2s1 (stereo not drawn)	5.99
FC(F)(F)Cc1cc2c(N3CC[C@@H]4[C@@H](CCN4Cc4ccc(Cl)nc4)C3)ncnc2s1 (single isomer, unassigned)	6.60
[CH3][Ge]([CH3])([CH3])[CH2]N1CCC2CN(c3ncnc4sc(CC(F)(F)F)cc34)CCC21 (stereo not drawn)	6.89
Cn1cc(CN2CC[C@H]3CN(c4ncnc5sc(CC(F)(F)F)cc45)C[C@H]32)cn1 [Compound 27B]	5.44
CC(C)CN1CC[C@H]2CN(c3ncnc4sc(CC(F)(F)F)cc34)C[C@H]21 (single isomer, unassigned) [Compound 28B]	5.86
Cn1cc(CN2CC[C@@H]3CN(c4ncnc5sc(CC(F)(F)F)cc45)CC[C@@H]32)cn1 (single isomer, unassigned)	6.28

* * *

molecular target: Menin/MLL (terbium chelate-labeled menin, FITC-MBM1 peptide) (Homo sapiens, UniProt O00255, T541A); construct: Menin (a.a. 1-610-6×his tag) was labeled with terbium cryptate as follows; assay: Menin/MLL homogenous time-resolved fluorescence (HTRF) assay; format: binding; conditions: averaged values over all measurements; read-out: Menin HTRF assay (IC50)
pIC50: −log10 of the molar value.

molecule	relation operator	pIC50
Cc1cncc(CN2CC[C@@H]3CN(c4ncnc5sc(CC(F)(F)F)cc45)C[C@@H]3C2)c1 (single isomer, unassigned)	=	6.78
FC(F)(F)Cc1cc2c(N3C[C@H]4CCN(CC(F)(F)F)C[C@H]4C3)ncnc2s1 (single isomer, unassigned)	=	5.61
FC(F)(F)Cc1cc2c(N3CC[C@@H]4[C@@H](CCN4Cc4ccc(Cl)nc4)C3)ncnc2s1 (single isomer, unassigned)	=	6.93
OC1(CN2CC[C@@H]3CN(c4ncnc5sc(CC(F)(F)F)cc45)C[C@@H]3C2)CCOCC1 (single isomer, unassigned)	=	6.70
FC(F)(F)Cc1cc2c(N3C[C@H]4CCN(Cc5ccc(Cl)nc5Cl)C[C@H]4C3)ncnc2s1 (single isomer, unassigned)	=	7.44
FC(F)(F)Cc1cc2c(N3C[C@H]4CCN(Cc5cnccn5)C[C@H]4C3)ncnc2s1 (single isomer, unassigned)	=	6.60
FC(F)(F)Cc1cc2c(N3C[C@@H]4CN(Cc5ccccc5)C[C@@H]43)ncnc2s1	=	5.46
FC(F)(F)Cc1cc2c(N3CC[C@H]4[C@H](CCN4Cc4ccc(Cl)nc4)C3)ncnc2s1 (single isomer, unassigned)	=	6.17
Cn1cc(CN2C(=O)C[C@@H]3CCN(c4ncnc5sc(CC(F)(F)F)cc45)C[C@@H]32)cn1 (single isomer, unassigned) [Compound 35B]	<	4.60
O=C(C1CCCOC1)N1CCC(CN2CC[C@@H]3CN(c4ncnc5sc(CC(F)(F)F)cc45)C[C@@H]3C2)CC1 (single isomer, unassigned)	=	7.85
O=C(C1COC1)N1CCC(CN2CC[C@@H]3CN(c4ncnc5sc(CC(F)(F)F)cc45)C[C@@H]3C2)CC1 (single isomer, unassigned)	=	7.16
FC(F)CN1CC[C@@H]2CN(c3ncnc4sc(CC(F)(F)F)cc34)C[C@@H]2C1 (single isomer, unassigned)	=	5.65
FC(F)(F)Cc1cc2c(N3C[C@H]4CCN(Cc5ccncc5)C[C@H]4C3)ncnc2s1 (single isomer, unassigned)	=	7.60
COc1cc(CN2CC[C@@H]3CN(c4ncnc5sc(CC(F)(F)F)cc45)C[C@@H]3C2)ccn1 (single isomer, unassigned)	=	7.21
FC(F)(F)Cc1cc2c(N3C[C@H]4CCN(CC5CCOC5)C[C@H]4C3)ncnc2s1 (single isomer, unassigned)	=	7.55
O=C(C1CCOCC1)N1CCC(CN2CC[C@@H]3CN(c4ncnc5sc(CC(F)(F)F)cc45)C[C@@H]3C2)CC1 (single isomer, unassigned)	=	7.52
CC(C)[C@H](c1cnn(C)c1)N1CC[C@@H]2CN(c3ncnc4sc(CC(F)(F)F)cc34)C[C@@H]2C1 (single isomer, unassigned) [Compound 77A]	=	6.70
FC(F)(F)Cc1cc2c(N3C[C@H]4CCN(CC5CCCOC5)C[C@H]4C3)ncnc2s1 (single isomer, unassigned)	=	7.48
Cn1ccnc1CN1CCC2CN(c3ncnc4sc(CC(F)(F)F)cc34)CCC21 (stereo not drawn)	=	5.34
Cc1nc(CN2CC[C@H]3CN(c4ncnc5sc(CC(F)(F)F)cc45)CC[C@H]32)cs1 (single isomer, unassigned)	=	6.07
FC(F)(F)Cc1cc2c(N3C[C@H]4CCN(CC5CCNCC5)C[C@H]4C3)ncnc2s1 (single isomer, unassigned) [Compound 70B]	=	7.62
FC(F)(F)Cc1cc2c(N3CCC4C(CCN4Cc4cc[nH]n4)C3)ncnc2s1 (stereo not drawn)	=	6.04
FC(F)(F)Cc1cc2c(N3C[C@H]4CCN(Cc5cccnc5)C[C@H]4C3)ncnc2s1 (single isomer, unassigned)	=	7.39
